# measurementTarget: human P2X3 receptor (Homo sapiens (Human), UniProt P56373)
# Sequence (P56373 whole entry): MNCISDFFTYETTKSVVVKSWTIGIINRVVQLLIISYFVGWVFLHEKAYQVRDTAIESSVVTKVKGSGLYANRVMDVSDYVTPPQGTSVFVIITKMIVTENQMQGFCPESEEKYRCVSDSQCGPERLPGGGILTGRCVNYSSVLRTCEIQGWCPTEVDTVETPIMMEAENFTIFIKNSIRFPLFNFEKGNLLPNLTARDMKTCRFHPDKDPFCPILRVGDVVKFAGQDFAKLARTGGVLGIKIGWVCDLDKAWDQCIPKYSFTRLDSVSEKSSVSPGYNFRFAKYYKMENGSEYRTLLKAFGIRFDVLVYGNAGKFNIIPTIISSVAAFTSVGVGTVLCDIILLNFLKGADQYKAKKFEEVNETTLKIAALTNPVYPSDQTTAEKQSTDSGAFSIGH
# assay: Evaluation of human P2X3 receptor inhibitory activity (Fluo-3 calcium fluorescence, FDSS 3000, ATP stimulation);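 further: stimulus was 50 nM ATP with fluorescence followed for 3 min, and the response per well was peak post-ATP fluorescence divided by the reading at measurement start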
# Assay type: cell-based
# measurementParameters: human P2X3 receptor, Test Example 1
Assignment: determine reported pIC50 for the given compounds.
Numbers only, as −log10 of the molar value.

Sample records with pIC50:
Cn1c(=O)[nH]/c(=N\c2ccc(Oc3cccc(C(N)=O)n3)cc2)n(C[C@H]2CC[C@H](C)CC2)c1=O
8.52
CCn1c(=O)[nH]/c(=N\c2ccc(Oc3ccc(C(N)=O)nc3)cc2)n(Cc2ccc(Cl)cn2)c1=O
7.48
COC(=O)CCn1c(=O)[nH]/c(=N\c2ccc(Oc3ncccn3)cc2)n(Cc2ccc(C)cc2)c1=O
8.40
COC(=O)[C@@H](C)Cn1c(=O)[nH]/c(=N\c2ccc(Oc3ccccc3)nc2)n(Cc2ccc(C)cc2)c1=O
6.80
CCn1c(=O)[nH]/c(=N\c2ccc(O[C@@H]3C[C@@H](C(=O)OC)N(C(=O)OC(C)(C)C)C3)cc2)n(Cc2ccc(Cl)cc2)c1=O
6.52
Cc1nnc(Oc2ccc(/N=c3\[nH]c(=O)n(C)c(=O)n3Cc3ccc(Cl)cc3)cc2)o1
7.15
CCn1c(=O)[nH]/c(=N\c2ccc(Oc3ccc(NCC(=O)O)nc3)cc2)n(Cc2ccc(Cl)cc2)c1=O
8.30
Cn1c(=O)[nH]/c(=N\c2ccc(Oc3ccc(C(=O)O)nn3)cc2)n(Cc2ccc(Cl)cc2)c1=O
7.27
CCn1c(=O)[nH]/c(=N\c2ccc(Oc3cnccn3)cc2)n(Cc2ccc(Cl)cc2)c1=O
7.96
CCn1c(=O)[nH]/c(=N\c2ccc(Oc3cc(C(=O)O)ccn3)cc2)n(Cc2ccc(C)cc2)c1=O
8.15

Give measured pIC50 for every item shown.
1. Cc1ccc(Cn2c(=O)n(CCC(N)=O)c(=O)[nH]/c2=N\c2ccc(Oc3ncccn3)cc2)cc1
2. CCn1c(=O)[nH]/c(=N\c2ccc(Oc3cc(C(N)=O)n[nH]3)cc2)n(Cc2ccc(Cl)cc2)c1=O
3. CCn1c(=O)[nH]/c(=N\c2ccc(Oc3cccc(C(=O)O)n3)cc2)n(C[C@H]2CC[C@H](C)CC2)c1=O
4. COC(=O)[C@@H](C)Cn1c(=O)[nH]/c(=N\c2ccc(OC3CC3)cc2)n(Cc2ccc(C)cc2)c1=O
5. CCn1c(=O)[nH]/c(=N\c2ccc(Oc3ccc(C#N)nn3)cc2)n(Cc2ccc(Cl)cc2)c1=O

1: 7.77; 2: 7.39; 3: 8.30; 4: 7.62; 5: 7.92
